System: Amphetamine-induced high locomotor activity in mice
protocol.summary: Amphetamine-induced high locomotor activity (LMA) in mice
Type: in vivo
Parameters: unit not given here
test.conditions: Amphetamine 1.0 mg/kg s.c.; 5 mg/kg p.o. (low dose group; olanzapine positive control); male ICR mice
property: Distance resulting from the activity, First 30 min

Use the examples below as a reference point.
Cc1cc2c(s1)Nc1ccccc1N=C2N1CCN(C)CC1 [Olanzapine, olanzapine, reference compound] = 227653
O=S(=O)(CC(F)(F)F)Nc1cccc(C2CCN(Cc3c[nH]c4ccccc34)C2)c1 (stereo not shown) = 340368
Oc1cccc(C2CCN(Cc3c[nH]c4ccccc34)C2)c1 (racemic) = 284824

Read the next record carefully.
Lookup result for O=S(=O)(Nc1cccc(C2CCN(Cc3c[nH]c4ccccc34)C2)c1)c1cccs1 (stereo not shown) ; measured Distance resulting from the activity, First 30 min: 287643

====

study.system: DAT (Homo sapiens)
Sequence (Q01959 whole entry, species assumed): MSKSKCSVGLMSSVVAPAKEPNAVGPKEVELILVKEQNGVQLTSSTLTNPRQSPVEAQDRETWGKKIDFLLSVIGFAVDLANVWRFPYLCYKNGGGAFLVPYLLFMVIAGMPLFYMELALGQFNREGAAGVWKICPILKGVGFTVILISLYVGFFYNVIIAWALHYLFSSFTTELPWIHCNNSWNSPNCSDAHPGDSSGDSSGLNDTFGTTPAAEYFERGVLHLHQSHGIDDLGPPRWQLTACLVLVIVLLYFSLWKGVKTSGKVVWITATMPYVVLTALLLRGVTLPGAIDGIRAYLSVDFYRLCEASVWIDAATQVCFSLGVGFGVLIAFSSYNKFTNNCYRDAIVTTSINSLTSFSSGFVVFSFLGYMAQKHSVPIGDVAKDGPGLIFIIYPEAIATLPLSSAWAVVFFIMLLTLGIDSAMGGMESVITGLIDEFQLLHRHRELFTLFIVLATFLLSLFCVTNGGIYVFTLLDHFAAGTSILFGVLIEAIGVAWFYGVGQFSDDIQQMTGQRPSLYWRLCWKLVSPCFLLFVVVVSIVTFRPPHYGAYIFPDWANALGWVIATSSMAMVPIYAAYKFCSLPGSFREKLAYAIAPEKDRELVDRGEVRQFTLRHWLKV
protocol.summary: DAT transporter assay (neurotransmitter transporter absorption assay)
Examples of molecules with documented IC50 follow.
Give just the numeric value; nM need not be written.

Please review the following examples before continuing.
c1ccc2c(CN3CCC(c4ccc5[nH]nnc5c4)C3)c[nH]c2c1 (stereo not shown) = 52.8
Oc1cccc(C2CCN(Cc3n[nH]c4ccccc34)C2)c1 (stereo not shown) = 111
Oc1cccc(C2CCN(Cc3c[nH]c4ncccc34)C2)c1 (stereo not shown) = 685
O=S(=O)(Nc1cccc(C2CCN(Cc3c[nH]c4ccccc34)C2)c1)c1cccs1 (stereo not shown) = 936
c1ccc2c(CN3CCC(c4cccc5[nH]ncc45)C3)c[nH]c2c1 (stereo not shown) = 87.5

Reported IC50 for c1ccc2c(CN3CCC(c4ccc5cn[nH]c5c4)C3)c[nH]c2c1 (stereo not shown) was 841

So for c1ccc2c(CN3CCC(c4ccc5nc[nH]c5c4)C3)c[nH]c2c1 (stereo not shown) , the logged IC50 turned out to be 191

Noted for Oc1cc(C2CCN(Cc3c[nH]c4ccccc34)C2)ccc1F (stereo not shown) : its IC50 reads 28.3

Per the records, this molecule ( O=S(=O)(CC(F)(F)F)Nc1cccc(C2CCN(Cc3c[nH]c4ccccc34)C2)c1 (stereo not shown) ) has IC50 equal to 762

For Oc1cccc(C2CCN(Cc3c[nH]c4ccccc34)C2)c1 (racemic) the molecule record lists IC50 as 181

====

study.system: D2 receptor (Homo sapiens, UniProt P14416)
Construct: expressed in transfected cells; host or cells: HEK293
Sequence (P14416 whole entry): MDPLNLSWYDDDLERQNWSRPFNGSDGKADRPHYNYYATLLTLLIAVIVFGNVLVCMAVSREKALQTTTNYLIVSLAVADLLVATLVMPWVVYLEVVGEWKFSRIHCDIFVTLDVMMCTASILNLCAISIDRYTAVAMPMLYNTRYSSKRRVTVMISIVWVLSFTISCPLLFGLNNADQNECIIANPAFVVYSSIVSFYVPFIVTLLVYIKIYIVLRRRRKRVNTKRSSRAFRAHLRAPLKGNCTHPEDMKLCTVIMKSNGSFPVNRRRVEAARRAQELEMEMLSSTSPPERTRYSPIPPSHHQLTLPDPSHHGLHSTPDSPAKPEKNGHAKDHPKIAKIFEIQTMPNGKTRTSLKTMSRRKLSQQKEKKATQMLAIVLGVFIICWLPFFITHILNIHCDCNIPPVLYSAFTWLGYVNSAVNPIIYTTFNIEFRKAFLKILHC
protocol.summary: D2 receptor function assay, calcium mobilization (FLIPR)
Format: cell-based
test.conditions: HEK293, antagonism of D2 receptor
property: IC50 (nM)
Note: unit nM is implicit; provide only the numeric part.

// solved cases for IC50 follow
Oc1cc(C2CCN(Cc3c[nH]c4ccccc34)C2)ccc1F (stereo not drawn) [MDC-161502-031] = 14.5
c1ccc2c(CN3CCC(c4cccc5[nH]ncc45)C3)c[nH]c2c1 (stereo not drawn) [MDC-161502-038] = 6.22

Consider now this further molecule.
# O=S(=O)(CC(F)(F)F)Nc1cccc(C2CCN(Cc3c[nH]c4ccccc34)C2)c1 (stereo not drawn) [MDC-161502-006] with D2 receptor (Homo sapiens, UniProt P14416): IC50 is 171

====

Item-by-item account of Distance resulting from the activity, Last 30 min
Tested on: Amphetamine-induced high locomotor activity in mice
protocol.summary: Amphetamine-induced high locomotor activity (LMA) in mice
Format: in vivo
Design: unit not given here
test.conditions: Amphetamine 1.0 mg/kg s.c.; 5 mg/kg p.o. (low dose group; olanzapine positive control); male ICR mice

Kindly note the recorded Distance resulting from the activity, Last 30 min for O=S(=O)(Nc1cccc(C2CCN(Cc3c[nH]c4ccccc34)C2)c1)c1cccs1 (stereo not shown) , which is 264309
